- Test system: SF-539 CNS
- ASSAY_METHOD_TEXT: NCI-60 one-dose screen, 48 h
- RUN_PARAMETERS: 10 µM unless noted
This is part of a sample that, as a whole, favours compounds with a hit. Of some 83,000 tested, about 20% had one in any assay. Activity calls are given as the source filed them. How the source made its calls: active means growth percent below 10; inactive means the rest.
Please answer using one outcome listed in yes (1) = active, no (0) = inactive

Previously resolved entries follow.
COMPOUND	ASSIGNED_CATEGORY
COc1cc(-c2nnc(SCc3ccc(O)c4ncccc34)n2-c2ccccc2)cc(OC)c1OC	yes (1)
CN(C)CCN(C)c1ccc2ncc(C#Cc3cncc(C(=O)Nc4ccc(CN5CCN(C)CC5)c(C(F)(F)F)c4)c3)n2n1	yes (1)
CCCn1cnc2c(c1=N)C(c1ccc(F)cc1)c1sc3c(CC)cccc3c1O2 (stereo not drawn)	yes (1)
COc1cc(-c2nn(C(C)(C)C)cc2-c2ccnc(NCCCNS(=O)(=O)c3ccc(F)cc3)n2)ccc1Cl	no (0)
O=S(=O)(NCCCNc1nccc(-c2[nH]c(-c3ccccc3)nc2-c2ccc(Cl)c(O)c2)n1)c1ccc(Br)cc1	no (0)

input: Answer briefly: the call reported for `N/C(=N\C(N)=N\c1nc2ccccc2s1)c1ccncc1Cl` in this assay.
output: yes (1)

input: Answer briefly: the call reported for `Nc1nc(-c2cccc([N+](=O)[O-])c2)c(N=Nc2cccc([N+](=O)[O-])c2)s1` in this assay.
output: yes (1)

input: Answer briefly: the call reported for `CC(C)(C)c1ccc(C(=O)Nc2sc3c(c2C(N)=O)CC/C(=N\O)C3)cc1` in this assay.
output: no (0)

input: Answer briefly: the call reported for `Oc1cccc2ccc(-c3nnc(SCc4ccc(O)c5ncccc45)n3-c3ccccc3)nc12` in this assay.
output: yes (1)

input: Answer briefly: the call reported for `CC1(C)CC[C@]23CC[C@]4(C)[C@H](CC[C@@H]5[C@@]6(C)CCCN(CO)C(C)(C)[C@@H]6CC[C@]54C)[C@H]2[C@H]1OC3` in this assay.
output: no (0)

input: Answer briefly: the call reported for CCO/C=N/C1=C(C#N)C(c2ccc(Cl)cc2)c2sc3c(C)cccc3c2O1 (stereo not drawn) in this assay.
output: yes (1)

input: Answer briefly: the call reported for `Cn1ccnc1C(=O)/C=C/c1ccc(CNC(=O)c2ccc(F)cc2)cc1` in this assay.
output: yes (1)

input: Answer briefly: the call reported for `CN1CCN(Cc2ccc(NC(=O)c3cncc(C#Cc4cnc5ccc(NCCCO)nn45)c3)cc2C(F)(F)F)CC1` in this assay.
output: yes (1)

---

- Tested on: NCI-H460 lung
- ASSAY_METHOD_TEXT: NCI-60 one-dose screen, 48 h (100 = growth as untreated, 0 = no growth, -100 = all killed)
- RUN_PARAMETERS: 10 µM unless noted
About 83,000 compounds went through this panel and 20% of them were active in at least one assay; those are over-represented in the sample as a whole.
REPORTED_ENDPOINT: growth (%)
Dear colleague, please return just the value in %, with no unit written.

input: Which growth is reported for this compound? COC(=O)C(Cc1ccccc1)Nc1nc(NC(Cc2ccccc2)C(=O)OC)nc(N2CCOCC2)n1 (stereo not drawn)
output: 107

input: Which growth is reported for this compound? `NS(=O)(=O)c1ccc(Nc2nc(N/N=C/c3ccccn3)nc(Nc3ccccc3)n2)cc1`
output: 3.8

input: Which growth is reported for this compound? `NC(=O)c1c(NC(=O)c2ccc(F)cc2F)sc2c1CCC(=O)C2`
output: 109

input: Which growth is reported for this compound? `COc1ccc(C(=O)CSc2nc3c(c(Nc4ccc(S(N)(=O)=O)cc4)n2)CCCC3)cc1`
output: 91.2

input: Which growth is reported for this compound? `CCCCCc1ccc(S(=O)(=O)Nc2cc(-c3csc(NC(=O)CN4CCN(C)CC4)n3)ccc2N2CCN(C)CC2)cc1`
output: -56
